System: NCI-H1975 (Lung Adenocarcinoma)
Assay Method Text: Bliss excess, mean over the matrix (fraction); higher = more synergy
Label rule, in plain words: Bliss excess of 0.001 and up is 1.0, under 0.001 is 0.0.

Here are 4 compounds together with their reported answers.
[[record]]
compound = "C[C@@H](c1ccc2nccn2c1)n1nnc2ncc(-c3cnn(C)c3)nc21 [Savolitinib] + CC1(C)CCC(CN2CCN(c3ccc(C(=O)NS(=O)(=O)c4ccc(NCC5CCOCC5)c([N+](=O)[O-])c4)c(Oc4cnc5[nH]ccc5c4)c3)CC2)=C(c2ccc(Cl)cc2)C1 [Venetoclax] (first compound max 1 µM, 7x7, partner max 1 µM)"
category = 0.0

[[record]]
compound = "CN(CCO)CC[C@H](CSc1ccccc1)Nc1ccc(S(=O)(=O)NC(=O)c2ccc(N3CCC([C@@H](O)c4ccccc4-c4ccc(Cl)cc4)CC3)cc2)cc1S(=O)(=O)C(F)(F)F [AZD4320] + C1CN(CCC1(C(=O)N[C@@H](CCO)C2=CC=C(C=C2)Cl)N)C3=NC=NC4=C3C=CN4 [Capivasertib] (first compound max 1 µM, 7x7, partner max 3 µM)"
category = 0.0

[[record]]
compound = "COc1nnc2ccc(N3CCC(c4ccc(OCCN5CCN(C)C(=O)[C@H]5C)cc4)CC3)nn12 [AZD5153] + C=CCn1c(=O)c2cnc(Nc3ccc(N4CCN(C)CC4)cc3)nc2n1-c1cccc(C(C)(C)O)n1 [AZD1775] (first compound max 1 µM, partner max 1 µM)"
category = 1.0

[[record]]
compound = "Cn1cnc2c(F)c(Nc3ccc(Br)cc3Cl)c(C(=O)NOCCO)cc21 [Selumetinib] + CCN(CCO)CCCOc1ccc2c(Nc3cc(CC(=O)Nc4cccc(F)c4)[nH]n3)ncnc2c1 [AZD2811] (first compound max 10 µM, 7x7, partner max 1 µM)"
category = 1.0


INPUT: Test whether the compound COc1cccc(OCCCN)c1-c1cc(Nc2cnc(C#N)cn2)n[nH]1 [Prexasertib] + O=C(c1cc(Cc2n[nH]c(=O)c3ccccc23)ccc1F)N1CCN(C(=O)C2CC2)CC1 [Olaparib] (first compound max 1 µM, 7x7, partner max 10 µM) records Bliss excess of 0.001 or higher.
OUTPUT: 1.0

INPUT: Test whether the compound CC1(C)CCC(CN2CCN(c3ccc(C(=O)NS(=O)(=O)c4ccc(NCC5CCOCC5)c([N+](=O)[O-])c4)c(Oc4cnc5[nH]ccc5c4)c3)CC2)=C(c2ccc(Cl)cc2)C1 [Venetoclax] + COc1cc(Nc2ncc3c(n2)-c2ccc(Cl)cc2C(c2c(F)cccc2OC)=NC3)ccc1C(=O)O [Alisertib] (first compound max 1 µM, 7x7, partner max 10 µM) records Bliss excess of 0.001 or higher.
OUTPUT: 0.0

INPUT: Test whether the compound COc1nnc2ccc(N3CCC(c4ccc(OCCN5CCN(C)C(=O)[C@H]5C)cc4)CC3)nn12 [AZD5153] + CC1(C)CCC(CN2CCN(c3ccc(C(=O)NS(=O)(=O)c4ccc(NCC5CCOCC5)c([N+](=O)[O-])c4)c(Oc4cnc5[nH]ccc5c4)c3)CC2)=C(c2ccc(Cl)cc2)C1 [Venetoclax] (first compound max 1 µM, 7x7, partner max 1 µM) records Bliss excess of 0.001 or higher.
OUTPUT: 0.0

---

Test system: NTERA-2-cl-D1 (Other Solid Carcinomas)
Assay Method Text: combination Emax (second highest fraction inhibited in the dose matrix, 72 h); higher = more inhibition; extreme values may be limits of the assay
Measured Parameter: combination Emax
Please respond with just the number, no unit label.

# example entries with known answers
[[record]]
compound = "CN(CCO)CC[C@H](CSc1ccccc1)Nc1ccc(S(=O)(=O)NC(=O)c2ccc(N3CCC([C@@H](O)c4ccccc4-c4ccc(Cl)cc4)CC3)cc2)cc1S(=O)(=O)C(F)(F)F [AZD4320] + CS(=O)(=O)CCNCc1ccc(-c2ccc3ncnc(Nc4ccc(OCc5cccc(F)c5)c(Cl)c4)c3c2)o1 [Lapatinib] (first compound max 1 µM, 7x7, partner max 10 µM)"
value = 0.965

[[record]]
compound = "CC(=O)c1c(C)c2cnc(Nc3ccc(N4CCNCC4)cn3)nc2n(C2CCCC2)c1=O [Palbociclib] + CC1(C)CCC(CN2CCN(c3ccc(C(=O)NS(=O)(=O)c4ccc(NCC5CCOCC5)c([N+](=O)[O-])c4)c(Oc4cnc5[nH]ccc5c4)c3)CC2)=C(c2ccc(Cl)cc2)C1 [Venetoclax] (first compound max 10 µM, 7x7, partner max 1 µM)"
value = 0.134

[[record]]
compound = "CN(C)CCCOc1ccc(-c2ccc3ncc4c(c3c2)n(C2CCOCC2)c(=O)n4C)cn1 [AZD0156] + C[C@@H]1COCCN1C2=NC(=NC(=C2)C3(CC3)[S@](=N)(=O)C)C4=C5C=CNC5=NC=C4 [AZD6738] (first compound max 1 µM, 7x7, partner max 10 µM)"
value = 0.595

[[record]]
compound = "Cc1c2c(nn1C)CSCc1cc(n(C)n1)CSc1cc(c3ccccc3c1)OCCCc1c(C(=O)O)n(C)c3c-2c(Cl)ccc13 [AZD5991] + Cc1cc2ncnn2cc1Nc1ncc2c(n1)n(C1CCOCC1)c(=O)n2C [AZD7648] (first compound max 1 µM, 7x7, partner max 10 µM)"
value = 0.662

[[record]]
compound = "CN(C)CCCOc1ccc(-c2ccc3ncc4c(c3c2)n(C2CCOCC2)c(=O)n4C)cn1 [AZD0156] + C=CCn1c(=O)c2cnc(Nc3ccc(N4CCN(C)CC4)cc3)nc2n1-c1cccc(C(C)(C)O)n1 [AZD1775] (first compound max 1 µM, partner max 1 µM)"
value = 0.376


INPUT: // returns reported combination Emax for input COc1cccc(OCCCN)c1-c1cc(Nc2cnc(C#N)cn2)n[nH]1 [Prexasertib] + C=CCn1c(=O)c2cnc(Nc3ccc(N4CCN(C)CC4)cc3)nc2n1-c1cccc(C(C)(C)O)n1 [AZD1775] (first compound max 1 µM, partner max 1 µM)
OUTPUT: 0.916

INPUT: // returns reported combination Emax for input C=CCn1c(=O)c2cnc(Nc3ccc(N4CCN(C)CC4)cc3)nc2n1-c1cccc(C(C)(C)O)n1 [AZD1775] + C1CN(CCC1(C(=O)N[C@@H](CCO)C2=CC=C(C=C2)Cl)N)C3=NC=NC4=C3C=CN4 [Capivasertib] (first compound max 3 µM, partner max 3 µM)
OUTPUT: 0.496

---

Tested on: ATN-1 (T-Lymphoblastic Leukemia)
Assay Method Text: Bliss excess, mean over the matrix (fraction); higher = more synergy
Quick reference: Bliss excess of the listed items.
Please respond with just the number, no unit label.

[[record]]
compound = "COc1cccc(OCCCN)c1-c1cc(Nc2cnc(C#N)cn2)n[nH]1 [Prexasertib] + C=CCn1c(=O)c2cnc(Nc3ccc(N4CCN(C)CC4)cc3)nc2n1-c1cccc(C(C)(C)O)n1 [AZD1775] (first compound max 1 µM, partner max 1 µM)"
measured_parameter = "Bliss excess"
value = 0.0134

[[record]]
compound = "CC1(C)CCC(CN2CCN(c3ccc(C(=O)NS(=O)(=O)c4ccc(NCC5CCOCC5)c([N+](=O)[O-])c4)c(Oc4cnc5[nH]ccc5c4)c3)CC2)=C(c2ccc(Cl)cc2)C1 [Venetoclax] + C[C@@H]1COCCN1C2=NC(=NC(=C2)C3(CC3)[S@](=N)(=O)C)C4=C5C=CNC5=NC=C4 [AZD6738] (first compound max 1 µM, 7x7, partner max 10 µM)"
measured_parameter = "Bliss excess"
value = -0.0216

[[record]]
compound = "COc1nnc2ccc(N3CCC(c4ccc(OCCN5CCN(C)C(=O)[C@H]5C)cc4)CC3)nn12 [AZD5153] + C[C@@H]1COCCN1C2=NC(=NC(=C2)C3(CC3)[S@](=N)(=O)C)C4=C5C=CNC5=NC=C4 [AZD6738] (first compound max 1 µM, 7x7, partner max 10 µM)"
measured_parameter = "Bliss excess"
value = 0.0411

[[record]]
compound = "COc1cccc(OCCCN)c1-c1cc(Nc2cnc(C#N)cn2)n[nH]1 [Prexasertib] + CN(C)CCCOc1ccc(-c2ccc3ncc4c(c3c2)n(C2CCOCC2)c(=O)n4C)cn1 [AZD0156] (first compound max 1 µM, 7x7, partner max 1 µM)"
measured_parameter = "Bliss excess"
value = 0.0102

[[record]]
compound = "C[C@@H]1COCCN1c1cc(C2([S@](C)(=N)=O)CC2)nc(-c2ccnc3[nH]ccc23)n1 [AZD6738] + O=C(c1cc(Cc2n[nH]c(=O)c3ccccc23)ccc1F)N1CCN(C(=O)C2CC2)CC1 [Olaparib] (first compound max 10 µM, 7x7, partner max 10 µM)"
measured_parameter = "Bliss excess"
value = 0.0169


INPUT: // returns reported Bliss excess for input NC1(C(=O)N[C@@H](CCO)c2ccc(Cl)cc2)CCN(c2ncnc3[nH]ccc23)CC1 [Capivasertib] + COc1nnc2ccc(N3CCC(c4ccc(OCCN5CCN(C)C(=O)[C@H]5C)cc4)CC3)nn12 [AZD5153] (first compound max 10 µM, 7x7, partner max 1 µM)
OUTPUT: -0.0444

INPUT: // returns reported Bliss excess for input Cc1c2c(nn1C)CSCc1cc(n(C)n1)CSc1cc(c3ccccc3c1)OCCCc1c(C(=O)O)n(C)c3c-2c(Cl)ccc13 [AZD5991] + Cn1cnc2c(F)c(Nc3ccc(Br)cc3Cl)c(C(=O)NOCCO)cc21 [Selumetinib] (first compound max 1 µM, 7x7, partner max 3 µM)
OUTPUT: -0.0672
